Task for the reader: assign each of the following compounds its reported log10 MIC.
- Tested on: Staphylococcus aureus
- ASSAY NAME: Antibacterial activity against Staphylococcus aureus RN4220 after 20 hrs by twofold serial dilution technique
- Assay type: functional
- CONDITION LABEL: RN4220, 20 h
Note the log scale: values are log10 of MIC expressed in µg/mL.

Ask | I'm curious: which log10 MIC was measured for `O=C(O)CN1C(=O)/C(=C/c2cn(-c3ccccc3)nc2-c2ccc(Cl)cc2Cl)SC1=S` tested on Staphylococcus aureus?
Reply | 0.90

Ask | Lab note: need log10 MIC for `COc1cccc(-c2nn(-c3ccccc3)cc2/C=C2\SC(=S)N(CC(=O)O)C2=O)c1` on Staphylococcus aureus, anyone have it?
Reply | 1.81

Ask | // fetch Staphylococcus aureus log10 MIC for `Cc1ccc(-c2nn(-c3ccccc3)cc2/C=C2\SC(=S)N(CC(=O)O)C2=O)cc1`
Reply | 1.20

Ask | # query: log10 MIC | item `O=C(O)CCCCN1C(=O)/C(=C/c2cn(-c3ccccc3)nc2-c2ccc(Cl)cc2Cl)SC1=S` | system: Staphylococcus aureus
Reply | 0.60

Ask | Provide value of log10 MIC for this record tested with Staphylococcus aureus: `O=C(O)CN1C(=O)/C(=C/c2cn(-c3ccccc3)nc2-c2ccc(Cl)cc2)SC1=S`
Reply | 0.90

Ask | Field: log10 MIC (Staphylococcus aureus). Entry: `O=C(O)CN1C(=O)/C(=C/c2cn(-c3ccccc3)nc2-c2cccc(Cl)c2)SC1=S`
Reply | 1.20

Ask | GET /values?readout=log10 MIC&system=Staphylococcus aureus&item= `O=C(O)CN1C(=O)/C(=C/c2cn(-c3ccccc3)nc2-c2ccccc2F)SC1=S`
Reply | 1.81

Ask | Any idea what log10 MIC came out for `O=C(O)CCCN1C(=O)/C(=C/c2cn(-c3ccccc3)nc2-c2ccc(Cl)cc2Cl)SC1=S` on Staphylococcus aureus?
Reply | 0.90

Ask | API: value(readout= log10 MIC, system= Staphylococcus aureus, query= `O=C(O)CCN1C(=O)/C(=C/c2cn(-c3ccccc3)nc2-c2ccc(Cl)cc2Cl)SC1=S` )
Reply | 0.90

Ask | Form: Entry = `O=C(O)CCCCCN1C(=O)/C(=C/c2cn(-c3ccccc3)nc2-c2ccc(Cl)cc2Cl)SC1=S` | System = Staphylococcus aureus | log10 MIC = ____
Reply | 1.51

Ask | Can you look up log10 MIC on Staphylococcus aureus for `O=C(O)CN1C(=O)/C(=C/c2cn(-c3ccccc3)nc2-c2ccccc2Cl)SC1=S` ?
Reply | 1.51

Ask | # returns recorded log10 MIC (system: Staphylococcus aureus) for CCn1cc(C(=O)O)c(=O)c2cc(F)c(N3CCNCC3)cc21 [NORFLOXACIN]
Reply | 0.30

Ask | Test system Staphylococcus aureus; read-out log10 MIC; what value for `O=C(O)CN1C(=O)/C(=C/c2cn(-c3ccccc3)nc2-c2ccccc2)SC1=S` ?
Reply | 1.81

----------
- System: Staphylococcus aureus
- ASSAY NAME: Antibacterial activity against methicillin-resistant Staphylococcus aureus CCARM 3167 after 20 hrs by twofold serial dilution technique
- Assay type: functional
- CONDITION LABEL: CCARM 3167, 20 h
Hi there, I'd appreciate the recorded MIC for every entry that follows.
Supply the numeric figure in µg/mL, leaving out any unit text.

Ask | Please state recorded MIC (tested on Staphylococcus aureus) of `Cc1ccc(-c2nn(-c3ccccc3)cc2/C=C2\SC(=S)N(CC(=O)O)C2=O)cc1`
Reply | 16

Ask | Which measured MIC belongs to `O=C(O)CCN1C(=O)/C(=C/c2cn(-c3ccccc3)nc2-c2ccc(Cl)cc2)SC1=S` , tested on Staphylococcus aureus?
Reply | 4

Ask | Could you share what MIC was measured for `O=C(O)CN1C(=O)/C(=C/c2cn(-c3ccccc3)nc2-c2ccccc2F)SC1=S` , tested on Staphylococcus aureus?
Reply | 64

Ask | For the record `O=C(O)CN1C(=O)/C(=C/c2cn(-c3ccccc3)nc2-c2ccccc2)SC1=S` , what value of MIC is listed for Staphylococcus aureus?
Reply | 32

Ask | Kindly state the measured MIC obtained for `O=C(O)CN1C(=O)/C(=C/c2cn(-c3ccccc3)nc2-c2ccc(Br)cc2)SC1=S` with Staphylococcus aureus.
Reply | 8

Ask | # get_value(readout= MIC, system= Staphylococcus aureus) for `COc1cccc(-c2nn(-c3ccccc3)cc2/C=C2\SC(=S)N(CC(=O)O)C2=O)c1`
Reply | 32

Ask | Query the reported MIC for Staphylococcus aureus; item: `Cc1ccc(-c2nn(-c3ccccc3)cc2/C=C2\SC(=S)N(CC(=O)O)C2=O)c(C)c1`
Reply | 16

Ask | Which MIC is reported with Staphylococcus aureus for this entry: `O=C(O)CN1C(=O)/C(=C/c2cn(-c3ccccc3)nc2-c2ccc(Cl)cc2Cl)SC1=S` ?
Reply | 4

Ask | For Staphylococcus aureus, provide MIC of `O=C(O)CN1C(=O)/C(=C/c2cn(-c3ccccc3)nc2-c2ccc(Cl)cc2)SC1=S` please.
Reply | 8

Ask | Query the reported MIC for Staphylococcus aureus; item: `O=C(O)CCN1C(=O)/C(=C/c2cn(-c3ccccc3)nc2-c2ccc(Cl)cc2Cl)SC1=S`
Reply | 4

Ask | Param readout = MIC; param system = Staphylococcus aureus; param query = `O=C(O)CCCN1C(=O)/C(=C/c2cn(-c3ccccc3)nc2-c2ccc(Cl)cc2)SC1=S` ; response: value
Reply | 4

Ask | Which measured MIC belongs to `O=C(O)CN1C(=O)/C(=C/c2cn(-c3ccccc3)nc2-c2ccccc2Cl)SC1=S` , tested on Staphylococcus aureus?
Reply | 16

Ask | What value of MIC on Staphylococcus aureus does `O=C(O)CCCCN1C(=O)/C(=C/c2cn(-c3ccccc3)nc2-c2ccc(Cl)cc2Cl)SC1=S` have?
Reply | 2

Ask | Quick check: MIC on Staphylococcus aureus, item `O=C(O)CCCCCN1C(=O)/C(=C/c2cn(-c3ccccc3)nc2-c2ccc(Cl)cc2Cl)SC1=S` ?
Reply | 4

Ask | Form field - read-out: MIC; system: Staphylococcus aureus; submitted item: `CCn1cc(C(=O)O)c(=O)c2cc(F)c(N3CCNCC3)cc21`
Reply | 8

Ask | Hello, I am looking for reported MIC with Staphylococcus aureus for `O=C(O)CCCN1C(=O)/C(=C/c2cn(-c3ccccc3)nc2-c2ccc(Cl)cc2Cl)SC1=S` . Could you help?
Reply | 4

Ask | Provide the documented MIC with Staphylococcus aureus as the system for `O=C(O)CN1C(=O)/C(=C/c2cn(-c3ccccc3)nc2-c2cccc(Cl)c2)SC1=S`
Reply | 16

Ask | Give the reported MIC for `O=C(O)CN1C(=O)/C(=C/c2cn(-c3ccccc3)nc2-c2cccc(Br)c2)SC1=S` (system: Staphylococcus aureus).
Reply | 8

----------
- Tested on: Staphylococcus aureus
- ASSAY NAME: Antibacterial activity against Staphylococcus aureus RN4220 after 20 hrs by twofold serial dilution technique
- Type: functional
- CONDITION LABEL: RN4220, 20 h
Assign MIC to each entry below.
Expressed in µg/mL, but write only the number.

Ask | Dear colleague, I am looking for the recorded MIC of the following molecule: `Cc1ccc(-c2nn(-c3ccccc3)cc2/C=C2\SC(=S)N(CC(=O)O)C2=O)c(C)c1`
Reply | 16

Ask | Could you tell me which MIC is on file for `Cc1onc(-c2ccccc2)c1C(=O)N[C@@H]1C(=O)N2[C@@H]1SC(C)(C)[C@@H]2C(=O)O` ?
Reply | 1

Ask | Quick one: MIC of `O=C(O)CN1C(=O)/C(=C/c2cn(-c3ccccc3)nc2-c2ccc(Br)cc2)SC1=S` ?
Reply | 8

Ask | Entry `O=C(O)CN1C(=O)/C(=C/c2cn(-c3ccccc3)nc2-c2cccc(Br)c2)SC1=S` has what MIC?
Reply | 8

Ask | // query MIC value for entry `O=C(O)CCCN1C(=O)/C(=C/c2cn(-c3ccccc3)nc2-c2ccc(Cl)cc2)SC1=S`
Reply | 8

Ask | Using the record for `O=C(O)CCN1C(=O)/C(=C/c2cn(-c3ccccc3)nc2-c2ccc(Cl)cc2)SC1=S` , report its MIC.
Reply | 8

----------
- Tested on: Staphylococcus aureus
- ASSAY NAME: Antibacterial activity against Staphylococcus aureus RN4220 after 20 hrs by twofold serial dilution technique
- Assay type: functional
- CONDITION LABEL: RN4220, 20 h
Assign MIC to each entry below.

Ask | Fill in the blank: the reported MIC of `O=C(O)CN1C(=O)/C(=C/c2cn(-c3ccccc3)nc2-c2ccc(F)cc2)SC1=S` is ____.
Reply | > 64 µg/mL

Ask | Look up MIC for this molecule: `COc1ccc(-c2nn(-c3ccccc3)cc2/C=C2\SC(=S)N(CC(=O)O)C2=O)cc1`
Reply | > 64 µg/mL

Ask | Param item = `COc1ccccc1-c1nn(-c2ccccc2)cc1/C=C1\SC(=S)N(CC(=O)O)C1=O` ; retrieve measured MIC.
Reply | > 64 µg/mL
